settings: Ebola virus entry assay, reporter ratio channel; Channel type: primary
Activity calls are given as the source filed them. The rule behind the calls is not given here.
Pick one and only one: active, inactive

Take a look at these entries with their results.
CC(C)NCC(O)COc1ccc(COCCOC(C)C)cc1 (stereo unspecified) = active
CN1C[C@@H](NS(=O)(=O)N(C)C)C[C@@H]2c3cccc4c3c(cn4C)C[C@H]21 = active

For `CC(=O)SC[C@@H](Cc1ccccc1)C(=O)NCC(=O)OCc1ccccc1` , what call appears in the results of this test?
active

Hi, do you know how CN1CCCC(n2nc(Cc3ccc(Cl)cc3)c3ccccc3c2=O)CC1 (stereo unspecified) came out in this test?
active

Hello, I am checking results. What call was entered for C[C@H](N)C(=O)N[C@@H](C)C(=O)NC1[C@H]2CN(c3nc4c(cc3F)c(=O)c(C(=O)O)cn4-c3ccc(F)cc3F)C[C@@H]12 (stereo partly specified) ?
inactive

I'd appreciate the recorded outcome for Clc1ccc(C(OCCN2CCCCC2)c2ccccc2)cc1 (stereo unspecified) from this test.
active

###

conditions: Ebola virus entry assay, reporter ratio channel; Channel type: primary
Active and inactive are the calls of the source. The rule behind the calls is not given here.
Just give me one of these, please: 1 (yes) = active, 0 (no) = inactive

Example entries begin here.
Cc1cc(C)c(/C=C2\C(=O)Nc3ccccc32)[nH]1 = 1 (yes)
O=C(O)[C@H](O)[C@@H](O)[C@H](O[C@@H]1O[C@H](CO)[C@H](O)[C@H](O)[C@H]1O)[C@H](O)CO = 0 (no)
CSc1ccc(C(=O)c2[nH]c(=O)[nH]c2C)cc1 = 0 (no)
CCc1ccc(C(=O)C(C)CN2CCCCC2)cc1 (stereo not drawn) = 1 (yes)
C#CCN(C)Cc1ccccc1 = 0 (no)

How did this test come out for `CNC(=O)Oc1cccc2ccccc12` ?
0 (no)

State the result this test recorded for N#Cc1nn(-c2c(Cl)cc(C(F)(F)F)cc2Cl)c(N)c1S(=O)C(F)(F)F (stereo not drawn) .
0 (no)

###

test: Cell Viability - LYMP2-009 (AID 968); conditions: LYMP2-009 lymphoblastoid cell viability; series mostly up to 92.2 µM;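 note: cells exposed to compound for 24 h at 37 °C; nearly all actives have a fitted effect of over 55% in size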
Inconclusive results are not listed. Calls of active or inactive are those of the source. The call rests on the fitted dose curve; in most records, active means well fitted cell-killing curve with a large enough effect; inconclusive means small, poorly fitted or top-dose-only effect; inactive means flat fitted curve, though single readings scatter.
Choose one outcome from this list and give only that: active, inactive

Oc1c(Br)cc(Br)cc1Br = inactive
CN(C)C(=S)SSC(=S)N(C)C = active
CCCCCCCCCCCC[N+](C)(C)CCOc1ccccc1 = active

Could you please tell me the result logged for `O=C(CCl)c1ccc(Cl)cc1Cl` in this assay?
active

###

test: Primary qHTS for inhibitors of SARS-S pseudo-typed particle cell entry (AID 1479145); conditions: SARS-S pseudotyped particle cell entry, luciferase reporter; series mostly up to 57.1 µM; note: nearly all actives have a fitted effect of over 45% in size
Inconclusive results are not listed. Activity calls are given as the source filed them. Calls follow the shape of the full dose curve.
Result category, one only: y = active, n = inactive

Solved entries:
CCC(C(=O)OCCN1CCOC(c2ccccc2)C1C)c1ccccc1 (configuration not stated) = n
CSc1ccc(C(=O)c2[nH]c(=O)[nH]c2C)cc1 = n
O=c1cc(CO)occ1O = n

// switching to the query molecule
Just curious, what result did `Nc1c(CC(=O)O)cccc1C(=O)c1ccc(Br)cc1` get here?
n

###

efficacy values, listed per item
conditions: Ebola virus entry assay, green fluorescence channel
Potency and affinity values are given separately. The source made the active and inactive calls. The rule behind the calls is not given here.

The cases that follow already have their efficacy on record.
CCN(CC)CCN = -14.9% (inactive)
O=C1OC(OC(=O)c2cccnc2Nc2cccc(C(F)(F)F)c2)c2ccccc21 (centres undefined) = -25.3% (inactive)
C1CCC(C(CC2CCCCN2)C2CCCCC2)CC1 (centres undefined) = -230% (inactive)
Cc1cc(CC(=O)O)n(C)c1C(=O)c1ccc(Cl)cc1 = 24% (inactive)
COc1cc(C(=O)NCCCCCC(=O)O)cc(OC)c1OC = -33.5% (inactive)

Note down efficacy recorded for `CCCCCCCCCCCCCCCC[N+](C)(C)CCN(Cc1ccc(OC)cc1)c1ncccn1`
-93.3% (inactive)

State its efficacy for this compound: CN1CCCCC1CCN1c2ccccc2Sc2ccc(S(C)=O)cc21 (centres undefined)
68.6% (inactive)

Return the recorded efficacy value; entry: CCCCN(CCCC)CC(O)c1cc(Cl)cc2c1-c1ccc(Cl)cc1/C2=C/c1ccc(Cl)cc1 (centres undefined)
120% (inactive)

Specify measured efficacy for `Cc1nnc(C(=O)NC(C)(C)c2nc(C(=O)NCc3ccc(F)cc3)c(O)c(=O)n2C)o1` .
-16.5% (inactive)

Provide measured efficacy value, entry: CC(CC1c2ccccc2CCc2ccccc21)CN(C)C (centres undefined)
28.4% (inactive)

Supply reported efficacy belonging to this compound: C=CCOC(Cn1ccnc1)c1ccc(Cl)cc1Cl (centres undefined)
85% (inactive)

Return reported efficacy. Input compound: `Cc1[nH]c(C)c(Cl)c(=O)c1Cl`
22.5% (inactive)

Please give measured efficacy of the following entry: CC(Oc1c(Cl)cccc1Cl)C1=NCCN1 (centres undefined)
76.8% (inactive)

Give efficacy for `CC#C[C@]1(O)CC[C@H]2[C@@H]3C[C@H](C)C4=CC(=O)CC[C@]4(C)[C@H]3CC[C@@]21C`
83.4% (inactive)

Give a short answer stating reported efficacy for `CN(C)CC/C=C1\c2ccccc2Sc2ccc(Cl)cc21` .
-98.3% (inactive)

Kindly indicate its recorded efficacy. Item: `CCN(CC)CCOc1ccccc1C(=O)CCc1ccccc1`
42.3% (inactive)

Assign efficacy to the following record: CC(C)(C)C(=O)OCOC(=O)C1N2C(=O)CC2S(=O)(=O)C1(C)C (centres undefined)
65.1% (inactive)

Note down efficacy recorded for `CC(=O)N[C@H]1[C@H]([C@H](O)[C@H](O)CO)OC(C(=O)O)=C[C@@H]1N=C(N)N`
-18.6% (inactive)

Specify efficacy for `Nc1c2ccccc2nc2ccccc12` and stop.
59% (inactive)

// fetch efficacy given entry Cc1cccc(N(C)C(=S)Oc2ccc3c(c2)C2CCC3C2)c1 (centres undefined)
40.9% (inactive)

Give reported efficacy value for CCN(CC)CCNC(C(=O)OCCC(C)C)c1ccccc1 (centres undefined)
47.8% (inactive)

// fetch efficacy given entry `COCC(=O)O[C@]1(CCN(C)CCCc2nc3ccccc3[nH]2)CCc2cc(F)ccc2[C@@H]1C(C)C`
-180% (inactive)

Give recorded efficacy. Cc1ccc(C(C)OC(=O)C2(C)CCC(C(=O)O)C2(C)C)cc1 (centres undefined)
24.8% (inactive)

Write down efficacy measured for item `COc1nc(C)nc(Cl)c1NC1=NCCN1`
-23.1% (inactive)

Give recorded efficacy. `NCCNc1cccc2ccccc12`
85.8% (inactive)

Return the recorded efficacy value; entry: `Cc1cc(O)c(C(C)C)cc1Cl`
-25.5% (inactive)

Specify measured efficacy for `Cc1sccc1Br` .
-12.3% (inactive)

State its efficacy: `O=C(CBr)Nc1ccc(Cl)cc1C(=O)c1ccccc1F`
28% (inactive)

Identify measured efficacy associated with `CCn1cc(C(=O)O)c(=O)c2cc(F)c(N3CCNCC3)nc21`
-17.3% (inactive)

Kindly indicate its recorded efficacy. Item: `CC(C)(C)CC(C)(C)c1ccc(O)c(Cc2ccc(Cl)cc2Cl)c1`
12.2% (inactive)

Please give the documented efficacy of CCCCCCCCCCOCC(O)CN (centres undefined)
-191% (inactive)

Item `NS(=O)(=O)c1cc2c(cc1Cl)CN(C1CCCCC1)C2=O` : provide efficacy
30.3% (inactive)
